Target: WDR5 (Homo sapiens (Human))
Assay: FP based competitive binding assay to WDR5
Conditions: read-out: Binding Affinity to WDR5 (IC50 ± SD); Table 5 peptidomimetics
Experimental: Another aspect of the invention is development of a Fluorescent Polarization (FP) based competitive binding assay. […] Next, the millipolarization (mP) values were measured at different time points in order to determine equilibrium duration and stability. […] All the FP based experiments were performed in MICROFLUOR® 2 Black, “U” Bottom, 96-well Microtiter Plates (ThermoSci.) and FP was measured as mP units in a microplate reader (Tecan Ultra) with excitation at 485 nm and emission at 530 nm. […]
*1 amine or outer side, *2 acyl side, *3 side chain or, on linkers, in order; H or OH if unused. Where a SMILES comes first, the peptide text is derived from it. [ ]: non-standard residue; d: D form. The star is where a group is joined. PhAc = O=C(Cc1ccccc1)*; Aib = CC(C)(N)C(=O)O; CO = O=C([*:1])[*:2]; Bz = O=C(c1ccccc1)*
Measured Parameter: IC50

- C[C@H](NC(=O)[C@H](CCCNC(=N)N)NC(=O)[C@H](C)NC(=O)Cc1ccccc1)C(N)=O [Compound 9I] (PhAc-Ala-Arg-Ala-NH2): > 25000 nM

Entry CCC(CC)NC(=O)[C@H](C)NC(=O)[C@H](CCCNC(=N)N)NC(=O)[C@H](C)NC(C)=O [Compound 7B] : reported IC50 = ? < 1000 nM

Entry CC(=O)N[C@H](C(=O)N[C@@H](CCCNC(=N)N)C(=O)NC1(C(N)=O)CCCC1)C(C)C [Compound 5C] : reported IC50 = ? < 1000 nM

Entry CCC(CC)(NC(C)=O)C(=O)N[C@@H](CCCNC(=N)N)C(=O)NC1(C(N)=O)CCCC1 [Compound 6G] : reported IC50 = ? < 1000 nM

Entry CNC(=O)N[C@@H](C)C(=O)N[C@@H](CCCNC(=N)N)C(=O)N[C@@H](C)C(N)=O [Compound 9K] ({NHMe-CO}-Ala-Arg-Ala-NH2) : reported IC50 = ? < 10000 nM

Entry CC[C@H](NC(=O)[C@H](CCCNC(=N)N)NC(=O)C(C)(C)NC(C)=O)C(N)=O [Compound 6A] : reported IC50 = ? < 1000 nM

Entry CCC(CC)(NC(=O)C(C)C)C(=O)N[C@@H](CCCNC(=N)N(C)C)C(=O)NC1(C(N)=O)CCCC1 [Compound 10G] : reported IC50 = ? > 1000 nM

Entry C[C@H](NC(=O)[C@H](CCCNC(=N)N)NC(=O)[C@H](C)NC(=O)c1ccccc1)C(N)=O [Compound 9H] (Bz-Ala-Arg-Ala-NH2) : reported IC50 = ? > 1000 nM

Entry CCC(CC)(NC(=O)c1ccccc1)C(=O)N[C@H](CCCNC(=N)N)C(=O)NC1(C(=O)NC(c2ccccc2)c2ccccc2)CCCC1 [Compound 10J] : reported IC50 = ? < 10000 nM

Entry CC(=O)N[C@H](C(=O)N[C@@H](CCCNC(=N)N)C(=O)NC1(C(N)=O)CC1)C(C)C [Compound 5A] : reported IC50 = ? < 10000 nM

Entry CCC(CC)(NC(=O)c1ccccc1)C(=O)N[C@@H](CCCNC(=N)N)C(=O)NC1(C(N)=O)CCCC1 [Compound 10E] : reported IC50 = ? > 1000 nM

Entry CC(=O)NC(C)(C)C(=O)N[C@@H](CCCNC(=N)N)C(=O)N[C@H](C(N)=O)[C@@H](C)O [Compound 6C] (Ac-[Aib]-Arg-Thr-NH2) : reported IC50 = ? < 1000 nM
